B1: KAT8 regulatory NSL complex subunit 2, residues 28 to 91; numbered along this chain, Q9H9L4 (parent)
chain: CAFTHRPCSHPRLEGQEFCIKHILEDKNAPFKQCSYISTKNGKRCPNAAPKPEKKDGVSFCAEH

# Variants of: B1
# assay_info: abundance fitness (aPCA) (normalised: wild type 0, dead -1); higher = more abundant; growth selection in yeast, the domain comes from the species named
# stated_conditions: Homo sapiens
Label Y for high-side abundance fitness (at or above -0.2) and N for low-side abundance fitness (below it).

1. CAFTHRPCSHERLEGQEFCIKHILEDKNAPFKQCSYISTKNGKRCPNAAPKPEKKDGVSFCAEH [P11E]    Y
2. CAFTHRPCSHPRLEGQEFCIKHILEDKNAPFKQCSYISTKPGKRCPNAAPKPEKKDGVSFCAEH [N41P]    Y
3. CAFTHRPCSHPRLEGQEFCIKHILEDKNAPFKQCSYISTKNGKRCPNAAWKPEKKDGVSFCAEH [P50W]    N
4. CAFTHRPCSHPRLEGQEFCIKHILEDKNAPFKQCSMISTKNGKRCPNAAPKPEKKDGVSFCAEH [Y36M]    N
5. CAFTHRPCQHPRLEGQEFCIKHILEDKNAPFKQCSYISTKNGKRCPNAAPKPEKKDGVSFCAEH [S9Q]    Y
6. CAFTHRPCSHPRLTGQEFCIKHILEDKNAPFKQCSYISTKNGKRCPNAAPKPEKKDGVSFCAEH [E14T]    Y
7. CAFTHRPCSHPRLEGQEFCIKHILEDKNAPFSQCSYISTKNGKRCPNAAPKPEKKDGVSFCAEH [K32S]    Y
8. CAFTHRPCSHPRLEGQEFCIKHILEDKNAPFKQCSYIITKNGKRCPNAAPKPEKKDGVSFCAEH [S38I]    N
9. CAFTHRPCSHPRLEGQPFCIKHILEDKNAPFKQCSYISTKNGKRCPNAAPKPEKKDGVSFCAEH [E17P]    Y
10. CAFTHRPCSHPRLEGQEFDIKHILEDKNAPFKQCSYISTKNGKRCPNAAPKPEKKDGVSFCAEH [C19D]    N
11. CAFTHRPCSHPRLEGQEFCIKHILEDKNAWFKQCSYISTKNGKRCPNAAPKPEKKDGVSFCAEH [P30W]    N
12. CAFTHRPCSHPRLEGQEFCIWHILEDKNAPFKQCSYISTKNGKRCPNAAPKPEKKDGVSFCAEH [K21W]    Y
13. CAFTHRPCSHPRLEGQEFCIKHILEDKNAPFKQCSYISTKNGKRCYNAAPKPEKKDGVSFCAEH [P46Y]    Y
14. CAFTHRPCSHPRLEGQEFCIMHILEDKNAPFKQCSYISTKNGKRCPNAAPKPEKKDGVSFCAEH [K21M]    Y
15. CAFTHRPCSHPRLEGQQFCIKHILEDKNAPFKQCSYISTKNGKRCPNAAPKPEKKDGVSFCAEH [E17Q]    Y
16. CAFTHRPCSHPRLEGQEFCIKHILEDKNAPFKQCSYISTKNGKRCPNAAPIPEKKDGVSFCAEH [K51I]    Y
17. CAFTHRPCSHPRLEGQEFCIKHILEDKNAPFKQCSYISTKNGKRCPNAAPKPEKKDGVVFCAEH [S59V]    Y
18. CAFTHRPCSHPRLEGQEFCIKHILEDKNAPFCQCSYISTKNGKRCPNAAPKPEKKDGVSFCAEH [K32C]    Y
19. CAFTHRPCSHPRLEGQEFCIKHILEDKNAPFKQCSYISTKNGNRCPNAAPKPEKKDGVSFCAEH [K43N]    Y
20. CAFTHRPCSHPRLEGQEFCIKHILEDKNAPFKQTSYISTKNGKRCPNAAPKPEKKDGVSFCAEH [C34T]    N
21. CAFTHRPCSHPRLEGQEFCIKHILEDKNAPFKQCSYISTKNGKRCPWAAPKPEKKDGVSFCAEH [N47W]    Y
22. CAFTHRPCSHPRLEGQEFCIKHINEDKNAPFKQCSYISTKNGKRCPNAAPKPEKKDGVSFCAEH [L24N]    N
23. CAFTHRPCSHPRLEGQAFCIKHILEDKNAPFKQCSYISTKNGKRCPNAAPKPEKKDGVSFCAEH [E17A]    N
24. CAFTHRPCSHPRLEGQELCIKHILEDKNAPFKQCSYISTKNGKRCPNAAPKPEKKDGVSFCAEH [F18L]    Y
25. CAFTHRPCSHPRLEGQEFCIKHILEDKNAPFKQCSYISTKNGKRCPNAAPKPEKKYGVSFCAEH [D56Y]    Y
26. CAFTHRPCSHPRLEGQEFCPKHILEDKNAPFKQCSYISTKNGKRCPNAAPKPEKKDGVSFCAEH [I20P]    Y
27. CAFTHRPCSHPRLEGQEFCIKHILEDKNAPFDQCSYISTKNGKRCPNAAPKPEKKDGVSFCAEH [K32D]    Y
28. CAFTHRPCSHPRLEGQEFCIKLILEDKNAPFKQCSYISTKNGKRCPNAAPKPEKKDGVSFCAEH [H22L]    N
29. CAFTHRPCSHPRLEGQEFCIKHILEDKNAPFKQCSYISTKNGKRCPNAAPKPEKKDGVSFCAEV [H64V]    N
30. CAFTHRPCSHPRLEGQEDCIKHILEDKNAPFKQCSYISTKNGKRCPNAAPKPEKKDGVSFCAEH [F18D]    N
31. CAFTHRPCSHPRLEGQEFCIKHILEDKNAPFKQCSYISTKNGKRCPNAAPKWEKKDGVSFCAEH [P52W]    Y
32. CAFTHRPCSHPRLEGQRFCIKHILEDKNAPFKQCSYISTKNGKRCPNAAPKPEKKDGVSFCAEH [E17R]    N
33. CAFTHRPCSHPRLEGQEKCIKHILEDKNAPFKQCSYISTKNGKRCPNAAPKPEKKDGVSFCAEH [F18K]    N
34. EAFTHRPCSHPRLEGQEFCIKHILEDKNAPFKQCSYISTKNGKRCPNAAPKPEKKDGVSFCAEH [C1E]    N
35. CAFTHRPCSHPRLEGQEFCIKHILEDKNAPFKQCSYISRKNGKRCPNAAPKPEKKDGVSFCAEH [T39R]    Y
36. CAFTHRPCSHPRLEGQEFCIKHILEDLNAPFKQCSYISTKNGKRCPNAAPKPEKKDGVSFCAEH [K27L]    Y
37. CAFTHTPCSHPRLEGQEFCIKHILEDKNAPFKQCSYISTKNGKRCPNAAPKPEKKDGVSFCAEH [R6T]    Y
38. CAFTHRPCSHPRLEGQEFCIKHILWDKNAPFKQCSYISTKNGKRCPNAAPKPEKKDGVSFCAEH [E25W]    Y
39. CAFTHRPCSHPRLEGQEFCIKHILEDKNAPFKQWSYISTKNGKRCPNAAPKPEKKDGVSFCAEH [C34W]    N
40. CAFTHRPCSHPRLEGQEFCIKHILEDKNAPFKQCSYISTKNGKRCPNAAPKPEKKDGVYFCAEH [S59Y]    Y
41. CAFTHRPCSHPRLEGQEFCIKHIMEDKNAPFKQCSYISTKNGKRCPNAAPKPEKKDGVSFCAEH [L24M]    Y
42. CAFTHRPCSHPRLEGQEFCIKHILEDKNAPFKQCSYIYTKNGKRCPNAAPKPEKKDGVSFCAEH [S38Y]    Y
43. CAFTVRPCSHPRLEGQEFCIKHILEDKNAPFKQCSYISTKNGKRCPNAAPKPEKKDGVSFCAEH [H5V]    Y
44. CAFTHRPCSHPRLEGQEFCIKHILEDANAPFKQCSYISTKNGKRCPNAAPKPEKKDGVSFCAEH [K27A]    Y
45. CAFTHRPCSHPRLEGQEFCIKHILEDKNAPFKQCSYISTKGGKRCPNAAPKPEKKDGVSFCAEH [N41G]    Y
46. CAFTHRPCSHPRLEGQEFCIKHILEDKNAPFKQCSYISTKNGKRCPNAAPKPEKKDGVHFCAEH [S59H]    Y
47. CAFTHRPCSTPRLEGQEFCIKHILEDKNAPFKQCSYISTKNGKRCPNAAPKPEKKDGVSFCAEH [H10T]    Y
48. CAFTHRPCSHPRLEGQEFCIKHILEDKNAPFKQCSYISTKNGKRCPNAAPKPEKKDGESFCAEH [V58E]    Y
49. CAFTHRPCSHPRLEGQEFKIKHILEDKNAPFKQCSYISTKNGKRCPNAAPKPEKKDGVSFCAEH [C19K]    N
50. CAFTHRPCSHPRLEGQEFCIKHILEDKNAPFKQCSYISTKNGKRCPNAAPKPEKKHGVSFCAEH [D56H]    Y
51. CAFTHRPCSHPRLEGQEFCIKHILEDKNAPFKQCSYISTKNKKRCPNAAPKPEKKDGVSFCAEH [G42K]    Y
52. CAFTHRPCSHPRLEGQEFCIKHILEDKNAPFKQCSYISTKNGKRCPNAAPKPEKKDGVSFQAEH [C61Q]    N
53. CAFTHRPCSHPHLEGQEFCIKHILEDKNAPFKQCSYISTKNGKRCPNAAPKPEKKDGVSFCAEH [R12H]    N
54. CAFTHRPCSHPRLEGQEFCIKHILEDKNAPFKQCSSISTKNGKRCPNAAPKPEKKDGVSFCAEH [Y36S]    Y
55. CAPTHRPCSHPRLEGQEFCIKHILEDKNAPFKQCSYISTKNGKRCPNAAPKPEKKDGVSFCAEH [F3P]    N
56. CAFTHRPCSHPRLEGQEFCIKHILEDKNAPFKQCSYISTKNGKNCPNAAPKPEKKDGVSFCAEH [R44N]    Y
57. CAFTHRPCSHPRLEGQEFCIKHILEDKNAPFKQCSYISTKNGKRCPNANPKPEKKDGVSFCAEH [A49N]    Y
58. CAFHHRPCSHPRLEGQEFCIKHILEDKNAPFKQCSYISTKNGKRCPNAAPKPEKKDGVSFCAEH [T4H]    Y
59. CAFTHRPCSKPRLEGQEFCIKHILEDKNAPFKQCSYISTKNGKRCPNAAPKPEKKDGVSFCAEH [H10K]    Y
60. CAFTHRPCSHPRLEGQEFCIKHILEDKNAPFKQCSYISTKNGKRCFNAAPKPEKKDGVSFCAEH [P46F]    Y
61. CAFTHRPCSHPRLEGQEFCIKHILPDKNAPFKQCSYISTKNGKRCPNAAPKPEKKDGVSFCAEH [E25P]    N
62. CAFTHRPCSHPRLERQEFCIKHILEDKNAPFKQCSYISTKNGKRCPNAAPKPEKKDGVSFCAEH [G15R]    N
63. CAFTHRPCSHPRLEGQEFCIKHILEDKNAPFKQCSYISTKNGKRCPNAAPKDEKKDGVSFCAEH [P52D]    Y
64. CAFTHRPCSHPRLEGQEFCILHILEDKNAPFKQCSYISTKNGKRCPNAAPKPEKKDGVSFCAEH [K21L]    Y
65. CAFTHRPCSHPRLEGQEFCIKHILEDKNAPFKQCSYISTKNGKRCPNAAPKPEKKCGVSFCAEH [D56C]    Y
66. CAFTHRPCSHPRLEGQEFCIKHILEDKNAPFKVCSYISTKNGKRCPNAAPKPEKKDGVSFCAEH [Q33V]    Y
67. CAFTHRPCSHPRLEGIEFCIKHILEDKNAPFKQCSYISTKNGKRCPNAAPKPEKKDGVSFCAEH [Q16I]    N
68. CAFTHRPCSHPWLEGQEFCIKHILEDKNAPFKQCSYISTKNGKRCPNAAPKPEKKDGVSFCAEH [R12W]    N
69. CNFTHRPCSHPRLEGQEFCIKHILEDKNAPFKQCSYISTKNGKRCPNAAPKPEKKDGVSFCAEH [A2N]    Y
70. CAFTHRPCSHPRLEGQEFCIKHILEDKNKPFKQCSYISTKNGKRCPNAAPKPEKKDGVSFCAEH [A29K]    Y
71. CAFTHRPCSHPRLEGQEFCNKHILEDKNAPFKQCSYISTKNGKRCPNAAPKPEKKDGVSFCAEH [I20N]    N
72. CAFTHRPCSHPRLEGQEFCIKHILEDKNAPFKQCSYISTKNGKRCPNAAPKPEKKDGVSFCAHH [E63H]    Y
73. CAFMHRPCSHPRLEGQEFCIKHILEDKNAPFKQCSYISTKNGKRCPNAAPKPEKKDGVSFCAEH [T4M]    N
74. CAFTHRPCSHPRLEGQEFCIKHILEDKNAPFKQCSYISTKNGKRCPNAAPKPEKKDGVSFCWEH [A62W]    Y
75. CAFTHRPCSHPRLEGQEFCIKHILECKNAPFKQCSYISTKNGKRCPNAAPKPEKKDGVSFCAEH [D26C]    Y
76. CAFTHRPCSHPRLEGQEFCIKHILEDKNAPFKQCSYISTKNGKRCPNAAPKPEKKDGVSFRAEH [C61R]    N
77. CAFTHRPCSHPRLEGQEFCIKHILEDKNLPFKQCSYISTKNGKRCPNAAPKPEKKDGVSFCAEH [A29L]    N
78. CAFTHRPCSHPRLEGQEFCIKHILEDCNAPFKQCSYISTKNGKRCPNAAPKPEKKDGVSFCAEH [K27C]    Y
79. CAFTHRPCSHPRLEGQEFCIKHILEDKNAPFKQCSYISTKNGKRCGNAAPKPEKKDGVSFCAEH [P46G]    Y
80. CARTHRPCSHPRLEGQEFCIKHILEDKNAPFKQCSYISTKNGKRCPNAAPKPEKKDGVSFCAEH [F3R]    Y
81. CAFTHRPCSHPRLEGQEFCIKHILEDKNNPFKQCSYISTKNGKRCPNAAPKPEKKDGVSFCAEH [A29N]    N
82. CAFTHRPCSHPRLEGQEFCIKHIDEDKNAPFKQCSYISTKNGKRCPNAAPKPEKKDGVSFCAEH [L24D]    Y
83. CAFTHRPCSHPRLEGQEFCIKHILEDKNAPFKQCSYISTKMGKRCPNAAPKPEKKDGVSFCAEH [N41M]    Y
84. CAFTHRPCSHPRLEGQEFCIKHILEDKNAPFKQCSYISTKNGKRCPNAAPKPEKKDGSSFCAEH [V58S]    Y
85. CAFTHRPCSHPRLEGQEFCIKHILEDKNAPFEQCSYISTKNGKRCPNAAPKPEKKDGVSFCAEH [K32E]    Y
86. CAFTHRPCSHPRLEGQEFCIKHILEDKNACFKQCSYISTKNGKRCPNAAPKPEKKDGVSFCAEH [P30C]    N
87. CAFTHRPCSHPRLEGQEFCIKHILEDKNAPFKQCSYISTKNGKRCPNAAPKPEKKDGVSFCAEE [H64E]    N
